Give measured apparent KD of K4 kissing-loop reporter for each item. Keep answers brief.
- Test system: K4 kissing-loop RNA reporter;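 further: bound reporter read as fluorescence of individual clusters on recovered sequencing chips by microscopy, with normalized cluster intensities fitted with a binding model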
- method: apparent KD of K4 kissing-loop reporter; higher = weaker reporter binding
- condition notes: Eterna round: R107; input ligand: none
Please state the figure in nM; there is no need to write the unit.

Field: apparent KD of K4 kissing-loop reporter (K4 kissing-loop RNA reporter). Entry: UGAUACCAGACGGCCGCCACUCCCGUAAGUCAAAGACUUACGAAGAGAGUUUUUCAGUGAUGUUGGAGGACCGGGUCUGGUAUCU [FiskerMod 16 - Jieux - Exclusion - Tryptophan B]
870

Another sequence to look at: UAGUAGUAGCGAGGAUAUGCAAUAGGCGAGUGAUGUUCGCCAGGCGGGCGUCGCAUAUAAGAAAGAGCAGAAGGCGCUAGGUAGA [SameState - FMN B / A]
329

Another sequence to look at: UGAUACCAGACUGAUACCAGCUAGUGAUGUUAGCUAAAAUCAGGGUCAAAGACCCUGUCUGGCCCUUGGCAGCAGUCUGGUAUCU [TheoBX 10 #SwitchBubble #StaticStem]
134

Another sequence to look at: GUCCAACCUGGAGGAUAUCUGCUGUCCAGUGAUGUUGGACACUUUAGUAAAGGCCGGGUAGCCCGCAGAGAAGGCCGGAGUUGCC [Arceer]
375

Another sequence to look at: UCUCAAGCACAGUGAUGUUGUGCUUGGGAAGGAGCGCGUGGGAACGCAGGUAGGUCGCCCGGUAAAUCGCGUCAAUGCUAGAGGC [Arg A Ex t5]
99.9

Another sequence to look at: CGCAGUGAUGUUGCUUAUAUUCUUGGUUAACGAGGACCGGUACGGCCGCCACUCGAUUUCUAACUAUUCCAGUGUUAAUUUGAGU [JR_ExcTryptoA_Sub006]
502

Another sequence to look at: UUACGCGGCAUAGAUACCAGCAAUGCAGGAUAGGUCAAGAGUGAUGUUCUGAUACUUGGGUGCCCUUGGCAGCUAGACGAUAACA [theeternabot_sameState_KL_Theo_B_46]
521

Another sequence to look at: GAUAUAGUGAUGUUAUAUAGGAAGGAGUUACGAGGACCGGUACGGCCGCCACUCGAAACGAGUGAUGAUUUGGGAGAUUGGGUUG [SSTryptA.P]
395

Another sequence to look at: GCAACUCUCAGUGAUGUUGAGUUAUCGGAAGGAGCGCGUGAAAACGCAGGUAGGUCGCCGAUACAAUGAGUUUCUCGUUGGUUGC [Arginine A K4 21]
664

Another sequence to look at: UGUAUGGACUGAAGGAGCGGUAGAUAAACUGAGUGAUGUUCGGCAGAUAAAGGCGCAAGCCACCAGGUAGGUCGCAGUCCAUACU [KL-SSArg B3]
391

Another sequence to look at: UAAUAUAAUCUGUCGUUUACAAUAUUUAGUCAGGAUAUCGUAUAUUCGAGAAGGGACACUAUCUAGUGAUGUUAGAUAUUUCGUU [JR_ExcFMNA_Sub015]
59.6

Another sequence to look at: UGACUGGACUGAAGGAGCGUUGAAGGAGCGUAGUGAGUGAUGUUCACUACAGGUAGGUCGCAGCAGGUAGGUCGCAGUCUAGUCU [ArgBS 25 #DoubleAptamer #SwitchBubble]
101

Another sequence to look at: GUCCCGAGUGAUGUUCGGGUCGUUUGGGAAGGAGCGCCCGGAAGGGCAGGUAGGUCGCCCGGACCGUGCAGGUAACUGUGCGGCC [#2 Same State - Arginine A Attempt #18 (HarryS)]
181

Another sequence to look at: GCCUACGCUGCAGGAUAUAGUUACAGCGACUUAGCCGUUGUAUGUCCAUGGUUCAGUGAUGUUGAACUAGAAGGGCAGCGUAGGC [#02 K4 FMN B Exclusion]
132

Another sequence to look at: AUUAUAAAGUCGGCCGCCACUGAGAGUAGUGAUGUUACUCUUUUCCUUUAGAUAUUAUAUUUUAUCAGGACCGGGACAUCUGAUU [JR_Nu_ExcTryptoB_Sub024]
148

Another sequence to look at: GCCGUAGAUGGAAGGAGCGAGGUAGACUGUUGAAGUGAUGUUUCAACUCAUUAAGCCCAACCUCAGGUAGGUCGCCAUCUACGGC
115
